tested_on: HCV NS3 protease (Hepatitis C virus genotype 1a, UniProt P27958)
Construct: more particularly HCV NS3 proteases
Sequence (P27958 1027-1208): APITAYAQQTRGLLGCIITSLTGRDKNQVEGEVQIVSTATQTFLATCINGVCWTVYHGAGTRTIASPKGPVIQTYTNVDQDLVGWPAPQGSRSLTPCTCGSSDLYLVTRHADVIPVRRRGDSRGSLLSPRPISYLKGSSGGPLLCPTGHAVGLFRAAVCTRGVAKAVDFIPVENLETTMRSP
protocol_text: Enzyme inhibition of HCV NS3 serine protease (cleavage of peptide substrate / EDVV AbuC-p-nitroanilide, with or without NS4A)
Assay type: biochemical
assay_conditions: Enzyme inhibition data; Ki from rate vs [inhibitor] plots, Morrison tight binding competitive inhibition fit; 30 C, pH 7.8; read-out: Ki
Non-standard residues stand in square brackets, D forms with d. Residues, ends and D or L forms follow the SMILES beside them. *: point of attachment. X23 = CCC(N*)C(=O)c1ncc(-c2c(Cl)cccc2Cl)o1; Pyrazinecarbonyl = O=C(c1cnccn1)*; Hyp = O=C(O)[CH]1C[CH](O)CN1; X2 = COc1ccccc1-c1nc(C*)no1; Abu = CC[CH](N)C(=O)O
readout_type: Ki

Completed entries (count: 2):
1) CCC(NC(=O)C(CC(C)C)NC(=O)C(NC(=O)C(NC(=O)c1cnccn1)C(C)C)C(C)C)C(=O)C(=O)NCCc1ccc(OCc2ccccc2)c(OCc2ccccc2)c1 (stereo not drawn) [Compound 113]: 1 to 100 µM
2) CCC(C=O)NC(=O)C1CC(OCc2noc(-c3ccccc3OC)n2)CN1C(=O)C(NC(=O)C(NC(=O)c1cnccn1)C(C)C)C(C)C (stereo not drawn) [Compound 14] (Pyrazinecarbonyl-VV[Hyp](X2)[Abu]-aldehyde; configuration not given here): 1 to 100 µM

Kindly consider the entry below.
// returns reported Ki for input CCC(NC(=O)C(CC(C)C)NC(=O)C(NC(=O)C(NC(=O)C(CC(=O)O)NC(=O)C(N)CCC(=O)O)C(C)C)C(C)C)C(=O)c1ncc(-c2c(Cl)cccc2Cl)o1 (stereo not drawn) [Compound 126] (H-EDVVL-X23; configuration not given here) > 100 µM
